Provenance of the data: PubChem BioAssay

- measured_target: Epidermal growth factor receptor (Homo sapiens)
- assay_procedure: EGFR binders on small-molecule microarrays, primary screen, biochemical, small-molecule microarray, 635 nm fluorescence (AID 1104);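 also: score merges 667 nm emission intensity with spot signal to noise over triplicate slides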
- cond: EGFR binding, higher = more signal
Decision: composite z-score >= -0.1 yields yes, all other cases yield no.

Asked: Does the compound COc1ccc([Si](C)(C)[C@H]2[C@H](CC(=O)N(CCO)Cc3ccccc3)O[C@@]3(C(=O)N(Cc4cccc(N5C(=O)COc6ccccc65)c4)c4ccccc43)[C@@H]2C)cc1 have recorded composite z-score that is -0.1 or more?
Given back: yes

Asked: Confirm if composite z-score reported for the compound CC(C)C[C@@H]1NC(=O)[C@@]23C(=O)N[C@@H](Cc4ccccc4)C2[C@H](C)[C@@]2(C)O[C@H]2C3/C=C/CC/C=C/CNC(=O)[C@@H](C)NC1=O (stereo partly drawn) is -0.1 or above.
Given back: yes

Asked: API: above_or_equal(metric=composite z-score, cutoff=-0.1) for item C=C(/C(=C/C[C@H](OC(=O)c1ccncc1)c1cccc(OCCO)c1)c1cc(C(=O)OC)ccc1OC)C(C)C
Given back: no

Asked: Is composite z-score for CC(C)C[C@@H]1NC(=O)[C@@H]2C[C@H](C(=O)NCCCCCNC(=O)CS)[C@H](c3cccc(OCCO)c3)N2C1=O at or above -0.1?
Given back: yes

Asked: Would you say C=CC[C@@H](OC(=O)Nc1ccc(SC)cc1)c1ccc(OCCO)cc1 shows composite z-score at minimum -0.1?
Given back: no

Asked: Does composite z-score meet or surpass -0.1 for COc1ccc([Si](C)(C)[C@H]2[C@H](CC(=O)N(CCO)Cc3ccccc3)O[C@@]3(C(=O)N(Cc4ccc(N5CCC5=O)cc4)c4ccccc43)[C@@H]2C)cc1 ?
Given back: no

Asked: Determine whether measured composite z-score meets or exceeds -0.1 for COC(=O)c1c2oc(c1C(=O)OC)C(=O)N[C@@H](C(C)C)Cn1nncc1C1(CCCCC1)NC(=O)N[C@H](CO)CC2
Given back: no

Asked: Reported composite z-score at or above -0.1? COc1ccc(C#Cc2ccc3c(c2)[C@]2(C(=O)N3)[C@H](c3ccc(O)cc3)N3[C@H](c4ccccc4)[C@H](c4ccccc4)OC(=O)[C@H]3[C@@H]2C(N)=O)cc1
Given back: no

Asked: Quick check: does CCN(CC)c1ccc(N2CC=CC34O[C@@H]5C=CCOC(=O)[C@@H]5[C@H]3C(=O)N(C(C)CO)[C@@H]4C2=O)cc1 (stereo partly drawn) have composite z-score greater than or equal to -0.1?
Given back: no

Asked: Dear colleague, could you confirm whether CCCC[C@@H](O)C1=C(C)C[C@H]2C(=O)N(C)C(=O)[C@H]2[C@H]1CO has composite z-score at or above -0.1?
Given back: yes

Asked: State whether the measured composite z-score reaches -0.1, counting equality as reaching it, for CCOC(=O)C[C@H]1[C@H](OC(=O)Cc2ccc3c(c2)OCO3)[C@@H](NC(=O)c2ccc3ccccc3c2)c2cc(OCCCO)ccc2N1C(=O)c1ccc2ccccc2n1
Given back: yes

Asked: Form field: composite z-score at least -0.1? Entry: CC(C)C[C@@H]1NC(=O)[C@H]2C[C@@H](C(=O)NCCCC[N+](C)(C)C)[C@@H](c3cccc(OCCO)c3)N2C1=O
Given back: yes

Asked: Determine whether this compound has composite z-score no lower than -0.1: C=CCN1C(=O)[C@@]2(O[C@@H](CCO)[C@H]([Si](C)(C)c3ccc(OC)cc3)[C@H]2C)c2cc(N(C=O)c3ccccc3)ccc21
Given back: no

Asked: Test whether the compound COCCCNC(=O)[C@@]1(C)c2ccccc2C(=O)N(Cc2cc(F)cc(C(F)(F)F)c2)[C@H]1c1ccc(CO)cc1 records composite z-score of -0.1 or higher.
Given back: no

Asked: Quick check: does COc1ccc([Si](C)(C)[C@H]2[C@H](CC(=O)N(CCO)Cc3ccccc3)O[C@@]3(C(=O)N(Cc4ccc(N5CCOC5=O)cc4)c4ccccc43)[C@@H]2C)cc1 have composite z-score greater than or equal to -0.1?
Given back: yes

Asked: Dear colleague, could you confirm whether COc1ccc([Si](C)(C)[C@H]2[C@H](CCO)O[C@@]3(C(=O)N(Cc4ccc(N5C(=O)c6cccc7cccc5c67)cc4)c4ccccc43)[C@@H]2C)cc1 has composite z-score at or above -0.1?
Given back: no

Asked: Threshold query (composite z-score >= -0.1) on CC(C)C(CO)N1C(=O)[C@@H]2C3C(=O)OCCC/C=C\[C@H]3OC23C=CCN(C(C)C)C(=O)[C@@H]13 (stereo partly drawn)
Given back: no

Asked: Determine whether measured composite z-score meets or exceeds -0.1 for COC(=O)[C@@]1(CCC(=O)OC(C)(C)C)COC(c2ccc(OCCCO)cc2)=N1
Given back: no

* * *

- assay_procedure: basal 3T3-L1 adipocyte mitochondrial potential changes, profiling panel, cell-based, JC-1 fluorescence, 3T3-L1 adipocytes, 24 h, 100 nL compound (AID 1168); also: test concentration not given here
- cond: JC-1 mitochondrial fluorescence, higher = more signal, called active from +8 up or from −8 down
The threshold is inclusive: z-score of exactly 0.3 counts as 1 (yes); values below receive 0 (no).

Asked: For this compound, is measured z-score 0.3 or higher? O=C1N(CCS(=O)(=O)c2ccccc2)Cc2ccccc2[C@@H]2OC(c3ccc(OCCCO)cc3)=N[C@]12Cc1ccccc1
Given back: 1 (yes)

Asked: Tell me whether z-score is at least 0.3 here: CC(C)C(CO)N1C(=O)[C@@H]2[C@H]3C(=O)OCC=C[C@H]3OC23C=CCN(Cc2ccccc2)C(=O)[C@@H]13 (some centres not stated)
Given back: 0 (no)

Asked: Check the entry C=C[C@H](OC)[C@@H](OC(=O)Nc1ccc(OC)cc1)c1ccc(OC)c(O)c1 : does z-score equal or exceed 0.3?
Given back: 1 (yes)

Asked: Decide: is the reported value of z-score for C=C(CCCC)/C(=C/C[C@H](OC(=O)c1ccncc1)c1ccc(CO)o1)c1cnc2ccccc2c1 equal to or greater than 0.3?
Given back: 1 (yes)

Asked: Say whether CO[C@H]1O[C@H](CO)[C@@H](OC(=O)Nc2ccccc2)[C@H](OC(=O)Nc2ccc3c(c2)OCO3)[C@H]1OC(=O)Nc1ccc2c(c1)OCO2 shows z-score of 0.3 or more.
Given back: 1 (yes)

Asked: // inclusive: z-score at least 0.3? input: COC(=O)C(CC#Cc1ccc2c(c1)[C@]1(C(=O)N2)[C@H](C(N)=O)[C@H]2C(=O)O[C@H](c3ccccc3)[C@H](c3ccccc3)N2[C@@H]1c1ccc(O)cc1)C(=O)OC
Given back: 0 (no)

Asked: Could you tell me if the measured z-score of CCCNC(=O)[C@@H]1c2ccccc2C(=O)N(Cc2cc(C(F)(F)F)cc(C(F)(F)F)c2)[C@H]1c1ccc(CO)cc1 reaches 0.3 or more?
Given back: 0 (no)

Asked: Hi, just wondering whether COc1ccc([Si](C)(C)[C@H]2[C@H](CC(=O)N3Cc4ccccc4C[C@H]3CO)O[C@@]3(C(=O)N(Cc4cccc(N5C(=O)COc6ccccc65)c4)c4ccccc43)[C@@H]2C)cc1 shows z-score of 0.3 or higher.
Given back: 1 (yes)

Asked: Does COCCCNC(=O)[C@@]1(C)c2ccccc2C(=O)N(Cc2cc(F)cc(C(F)(F)F)c2)[C@H]1c1ccc(CO)cc1 have a reported z-score of at least 0.3?
Given back: 0 (no)

Asked: Evaluate C=CCN1C(=O)[C@@]2(O[C@@H](CCO)[C@H]([Si](C)(C)c3ccc(OC)cc3)[C@H]2C)c2cc(N(C=O)c3ccccc3)ccc21 : z-score at minimum 0.3?
Given back: 1 (yes)

Asked: Decide: is the reported value of z-score for COCCOC(=O)N1C(=O)[C@@]2(c3cc(C#CCNC(N)=O)ccc31)[C@H](c1ccccc1OCCO)N1[C@H](c3ccccc3)[C@H](c3ccccc3)OC(=O)[C@H]1[C@@H]2C(=O)Nc1nc2ccccc2s1 equal to or greater than 0.3?
Given back: 1 (yes)

Asked: Is z-score at least 0.3? Consider COc1ccc([Si](C)(C)[C@H]2[C@H](CC(=O)N(CCO)Cc3ccccc3)O[C@@]3(C(=O)N(Cc4ccc(N5CCOC5=O)cc4)c4ccccc43)[C@@H]2C)cc1
Given back: 1 (yes)

* * *

- assay_procedure: compound binding in COS7 lysate, probe aLAP1, primary screen, cell lysate, small-molecule microarray (AID 1124);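 also: lysate comes from COS7 cells expressing LAP1 and is applied at 0.3 µg/mL; score merges spot fluorescence near 667 nm with signal-to-noise over triplicate slides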
- cond: probe aLAP1, fluorescence, higher = more signal
Outcome: label 1 for composite z-score of at least 0.2; label 0 for anything lower.

Asked: Has O=C(O)[C@H]1C[C@H]2C(=O)NCC(=O)N2[C@H]1c1cccc(OCCO)c1 a recorded composite z-score greater than or equal to 0.2?
Given back: label 0

Asked: Is it the case that CC(CO)N1C(=O)[C@@H]2C3C(=O)OCCC/C=C\[C@H]3OC23C=CCN(Cc2ccccc2)C(=O)[C@@H]13 (some centres not stated) has composite z-score reaching or exceeding 0.2?
Given back: label 0

Asked: Is reported composite z-score greater than or equal to 0.2 here: COCCOC(=O)N1C(=O)[C@@]2(c3cc(C#CCNC(N)=O)ccc31)[C@H](C(=O)NC[C@H](O)c1ccccc1)[C@H]1C(=O)O[C@H](c3ccccc3)[C@H](c3ccccc3)N1[C@@H]2c1ccc(O)cc1
Given back: label 1

Asked: Does the reported composite z-score for C=CC[C@@]1(C(=O)NCc2ccccc2)N=C(c2ccc(OCCCO)cc2)O[C@@H]1c1ccccc1 fall at or above the 0.2 mark?
Given back: label 1

Asked: Evaluate COCCOC(=O)N1C(=O)[C@@]2(c3cc(C#CC4(O)CCCCCC4)ccc31)[C@H](c1ccc(O)cc1)N1[C@H](c3ccccc3)[C@H](c3ccccc3)OC(=O)[C@H]1[C@@H]2C(N)=O : composite z-score at minimum 0.2?
Given back: label 1

Asked: Given O=C1c2ccccc2C(=O)c2cc([C@H]3Oc4ccccc4S(=O)(=O)N4CCC[C@@H]34)ccc21 , state whether its composite z-score is at least 0.2.
Given back: label 0

Asked: Does the reported composite z-score for CC(C)C[C@@H]1NC(=O)[C@@]23C(=O)N[C@@H](Cc4ccccc4)C2[C@H](C)[C@@]2(C)O[C@H]2C3/C=C/CC/C=C/CNC(=O)[C@@H](C)NC1=O (some centres not stated) fall at or above the 0.2 mark?
Given back: label 0

Asked: Decide: is the reported value of composite z-score for C=C(COC)/C(=C/C[C@H](OC(C)=O)c1cccc(OCCO)c1)c1cc(C(=O)OC)ccc1OC equal to or greater than 0.2?
Given back: label 0

Asked: Please indicate if the recorded composite z-score for CC(C)[C@@H](C(=O)O)n1cc(-c2ccccn2)nn1 meets or exceeds 0.2.
Given back: label 1

Asked: composite z-score >= 0.2 for COc1ccc([Si](C)(C)[C@H]2[C@H](CC(=O)N(CCO)Cc3ccccc3)O[C@@]3(C(=O)N(Cc4ccc(N5CCC5=O)cc4)c4ccccc43)[C@@H]2C)cc1 ?
Given back: label 1

Asked: Identify whether the reported composite z-score of the following compound is 0.2 or greater: CC(C)C[C@@H]1NC(=O)[C@H]2C[C@@H](C(=O)NCCCC[N+](C)(C)C)[C@@H](c3cccc(OCCO)c3)N2C1=O
Given back: label 1

Asked: Textbook exercise: given the entry COC(=O)C1=CC(c2ccc(CO)cc2)=CC(c2cccs2)N(C)C=C1C(=O)OC (configuration not stated) , state whether its composite z-score is greater than or equal to 0.2.
Given back: label 1

Asked: // inclusive: composite z-score at least 0.2? input: COc1ccc([Si](C)(C)[C@H]2[C@H](CC(=O)N(CCO)Cc3ccccc3)O[C@@]3(C(=O)N(Cc4ccc(N5CCOC5=O)cc4)c4ccccc43)[C@@H]2C)cc1
Given back: label 0

Asked: Is composite z-score for CC(C)C(CO)N1C(=O)[C@@H]2C3C(=O)OCCC/C=C\[C@H]3OC23C=CCN(C(C)C)C(=O)[C@@H]13 (some centres not stated) at or above 0.2?
Given back: label 1

Asked: Is composite z-score for CC(=O)NCCCC[C@@H]1NC(=O)[C@@H]2C[C@H](C(=O)O)[C@H](c3cccc(OCCO)c3)N2C1=O at or above 0.2?
Given back: label 0

Asked: Hello, I need to know if O=c1n(-c2ccccc2)c(=O)n2n1CC(COc1ccccc1)=C1[C@@H](CCc3ccccc3)OB(O)C[C@@H]12 has measured composite z-score not below 0.2. Thanks!
Given back: label 1

Asked: Does the compound COC(=O)C1=CC(c2ccc(CO)cc2)=CC(C2CC2)N(C)C=C1C(=O)OC (configuration not stated) have recorded composite z-score that is 0.2 or more?
Given back: label 1

Asked: Confirm if composite z-score reported for the compound COc1ccc([Si](C)(C)[C@@H]2[C@@H](CCn3cc([C@H](O)c4ccccc4)nn3)O[C@]3(C(=O)N(C)c4c(Br)cc(C)cc43)[C@H]2C)cc1 is 0.2 or above.
Given back: label 0

Asked: Identify whether the reported composite z-score of the following compound is 0.2 or greater: COC(=O)C1=CC(CCCO)=CC(C2CC2)N(Cc2cc3c(cc2Br)OCO3)C=C1C(=O)OC (configuration not stated)
Given back: label 1

Asked: Tell me whether composite z-score is at least 0.2 here: C=CCNC(=O)[C@H]1[C@@H]2C(=O)O[C@@H](c3ccccc3)[C@@H](c3ccccc3)N2[C@@H](c2ccccc2OCCO)[C@]12C(=O)N(C(=O)OCCOC)c1ccc(C#CCCO)cc12
Given back: label 1

Asked: Decide: composite z-score of CCOC(=O)C[C@H]1[C@H](OC(=O)c2ccc(C(=O)c3ccccc3)cc2)[C@@H](NC(=O)Cc2ccc(OC)cc2)c2cc(OCCCO)ccc2N1C(=O)Cc1ccc(OC)cc1 >= 0.2?
Given back: label 1

Asked: Determine whether measured composite z-score meets or exceeds 0.2 for CO[C@H]1O[C@H](CO)[C@@H](OC(=O)CCc2ccccc2)[C@@H]2OC(=O)[C@H](Cc3ccccc3)C/C=C/C[C@@H](Cc3ccccc3)C(=O)O[C@@H]12
Given back: label 0

Asked: Is the recorded value of composite z-score equal to or greater than 0.2 for this compound? Cc1ccc(S[C@]2(C(=O)NCC(C)C)CC(=O)N(C(C)C)[C@@H]2c2ccc(CO)cc2)cc1
Given back: label 0

Asked: I'd appreciate it if you could say whether C=CC[C@]1(C(=O)N2CCCCC2)COC(c2ccc(OCCCO)cc2)=N1 has composite z-score at least equal to 0.2.
Given back: label 1

Asked: Determine whether this compound has composite z-score no lower than 0.2: COc1ccc([Si](C)(C)[C@@H]2[C@@H](CC(=O)N3CCC[C@H]3CO)O[C@]3(C(=O)N(Cc4ccc(N5CCC5=O)cc4)c4ccccc43)[C@H]2C)cc1
Given back: label 0

Asked: Entry C=C[C@H](OC)[C@@H](OC(=O)Nc1ccc(OC)cc1)c1ccc(OC)c(O)c1 : is its composite z-score no less than 0.2?
Given back: label 0

Asked: Does the reported composite z-score for [N-]=[N+]=Nc1ccccc1[C@H]1OC(c2ccc(OCCCO)cc2)=N[C@@]1(Cc1ccccc1)C(N)=O fall at or above the 0.2 mark?
Given back: label 1
